System: GM3
Experiment: GM3 Elisa assay
Assay type: cell-based
Conditions: 48 h, Table 3; B16-FO cells, 2 days incubation; read-out: IC50_uM_Mean
assay-endpoint: IC50

INSERT INTO results (compound, readout_value) VALUES
  ('CCCCCCCC(=O)N[C@H](CN1CCC[C@@H]1C)[C@H](O)c1ccc2c(c1)OCCO2', '1000 to 3000 nM'),
  ('COc1ccc(C(=O)CCCCCC(=O)N[C@H](CN2CCC[C@@H]2C)[C@H](O)c2ccc3c(c2)OCCO3)cc1', '≤ 100 nM'),
  ('COc1ccc(C(=O)CCCCCC(=O)N[C@H](CN2CCC[C@H]2C)[C@H](O)c2ccc3c(c2)OCCO3)cc1', '≤ 100 nM'),
  ('COc1ccc(OCCC(=O)N[C@H](CN2CCC[C@@H]2C)[C@H](O)c2ccc3c(c2)OCCO3)cc1', '100 to 1000 nM'),
  ('COc1ccc(OCCC(=O)N[C@@H](CN2CCCC2)[C@@H](O)c2ccc3c(c2)OCCO3)cc1', '3000 to 10000 nM'),
  ('COc1ccc(C(=O)CCCCC(=O)NC(CN2CCCC2)[C@H](O)c2ccc(OCCC3CCCCC3)cc2)cc1 (stereo partly drawn)', '≤ 100 nM'),
  ('Cc1nccn1C[C@@H](NC(=O)CCCCCC(=O)c1ccc(F)cc1)[C@H](O)c1ccc2c(c1)OCCO2', '3000 to 10000 nM'),
  ('O=C(CCCCCC1CCOCC1)N[C@H](CN1CC[C@@H](F)C1)[C@H](O)c1cccc(OCc2ccccc2)c1', '100 to 1000 nM'),
  ('COc1ccc(CCCCN(C(=O)CCCCC(=O)c2ccc(OC)cc2)[C@H](CN2CCCC2)[C@H](O)c2ccc(O)cc2)cc1', '3000 to 10000 nM'),
  ('COC[C@H]1CCCN1C[C@@H](NC(=O)CCOc1ccc(OC)cc1)[C@H](O)c1ccc2c(c1)OCCO2', '3000 to 10000 nM'),
  ('CCCCOc1ccc([C@@H](O)[C@@H](CN2CC[C@@H](O)C2)NC(=O)CCCCCOCCF)cc1', '1000 to 3000 nM'),
  ('N#CCCCCCC(=O)C[C@H](CN1CCCC1)[C@H](O)c1ccc2c(c1)OCCO2', '3000 to 10000 nM'),
  ('O=C(CCCCS(=O)(=O)C12CC3CCCC(C1)C(C3)C2)N[C@H](CN1CCCC1)[C@@H](O)c1ccc2c(c1)OCCO2 (stereo partly drawn)', '100 to 1000 nM'),
  ('O=C(CCCCOCC(F)(F)F)N[C@H](CN1CCCC1)[C@H](O)c1ccc(CCc2ccccc2)cc1', '100 to 1000 nM'),
  ('COc1ccc(C(=O)CCCCCC(=O)N[C@H](CN2CC[C@@H](O)C2)[C@@H](O)c2ccc3c(c2)OCCO3)cc1', '100 to 1000 nM');

Reference source: patent US8729075B2
